Data provenance: PubChem BioAssay AID2314

# measurement description: Cycloheximide Counterscreen for Small Molecule Inhibitors of Shiga Toxin; note: read at 38.3 µM for the half of the compounds with a filed dose
# conditions used: cell reporter, cycloheximide protein synthesis inhibition counterscreen
Hit rate of the full screen: of about 300,000 compounds, about 37,000 (12%) were called active. Cut-off read from the data, not from the text of the source: active = max response mostly above about 13% (no sharp cut-off); inactive = mostly below about 14%. The sample holds actives, similar compounds and a random draw of the others, so the mix is not that of the screen.
Pick one and only one: Y = active, N = inactive

Consider the worked cases shown below.
CC(=O)N1CC[n+]2c(-c3ccc([N+](=O)[O-])cc3)csc21 = N
Cc1ccc(NC(=O)CCN2C(=O)c3ccccc3C2=O)cc1C = N
CC(=O)Nc1ccc(S(=O)(=O)N2CCC(C(=O)NC3CC3)CC2)cc1 = N
O=C(Cc1ccccc1)Nc1c(C(=O)N2CCCCCC2)cnn1-c1ccccc1 = N
COc1ccc(Cl)cc1NC(=O)NCC1CCN(Cc2ccccc2F)CC1 = N

Now consider a different molecule.
[ask] Outcome? O=C(Nc1ccn(Cc2ccccc2F)n1)c1ccc(COc2ccc(Cl)cc2Cl)o1
[reply] Y

###

# measurement description: Cycloheximide Counterscreen for Small Molecule Inhibitors of Shiga Toxin; note: read at 38.3 µM for the half of the compounds with a filed dose
# conditions used: cell reporter, cycloheximide protein synthesis inhibition counterscreen; stronger effect = higher value
In all, about 300,000 compounds went through this assay and about 37,000 (12%) were called active. This is one part of a sample in which actives are shown more often than they occur.
measured attribute: max response

Cc1ccc(CNC(=O)[C@@H](NC(=O)Cc2ccccc2)C(C)C)cc1 = 3.51% (inactive)
COc1cccc(OCCCN2CCCCCC2)c1 = 10.5% (inactive)
CNC(=O)N1c2ccccc2C=Cc2ccccc21 = -2.75% (inactive)
O=C(N/N=C/c1cccnc1)c1ccc(NC(=O)c2ccc(F)cc2)cc1 = -1.26% (inactive)
COc1ccc(CNC(=O)COC(=O)/C=C/c2ccc(S(=O)(=O)N3CCOCC3)cc2)cc1 = 9.31% (inactive)
CCOC(=O)c1cnc(-n2nc(C)cc2C)nc1NNc1cc(C)nc(-c2ccccc2)n1 = -1.88% (inactive)

[ask] Consider the molecule N#C/C(=C\c1ccccc1C(F)(F)F)C(=O)Nc1ccccc1F . State its measured max response.
[reply] -2.94% (inactive)

[ask] Consider the molecule CCN(c1ccccc1)S(=O)(=O)c1ccc(NC(=O)C(C)(C)C)cc1 and give its recorded max response.
[reply] -3.17% (inactive)

[ask] Identify max response associated with the molecule COc1ccc(/C=C/C(=O)OCC(=O)Nc2cccc(Oc3ccccc3)c2)c(OC)c1
[reply] -2% (inactive)

[ask] Query max response for Cc1ccc(/C=N/NC(=O)CNC(=O)COc2ccccc2)o1
[reply] -7.97% (inactive)

###

# measurement description: Cycloheximide Counterscreen for Small Molecule Inhibitors of Shiga Toxin; note: read at 38.3 µM for the half of the compounds with a filed dose
# conditions used: cell reporter, cycloheximide protein synthesis inhibition counterscreen
In all, about 300,000 compounds went through this assay and about 37,000 (12%) were called active. No stated cut-off is given here; in the data, active means max response mostly above about 13% (no sharp cut-off); inactive means mostly below about 14%. The list comes from a sample in which actives are over-represented; it also holds close analogues and randomly drawn compounds.
I would appreciate it if you answered using one of these outcomes: 1 (yes) for active, 0 (no) for inactive

A selection of reference data follows.
Cc1cc(=O)[nH]c(SCc2cccc(F)c2)n1 = 0 (no)
Cc1cc(C(=O)CSc2nc(N)cc(=O)[nH]2)c(C)n1Cc1ccco1 = 0 (no)
COCC(C)n1c(C)cc(C(=O)COc2ccc(C)nc2[N+](=O)[O-])c1C (stereo unspecified) = 0 (no)

[ask] Hi, sorry to bother you, what did the test record for CCN(CC)CCCNC(=O)COc1ccc2oc3c(c2c1)CCCC3 ?
[reply] 0 (no)

[ask] Any idea what this test logged for O=C(NCc1ccccc1Cl)c1ccc2c(=O)n(CC3CCCO3)c(=S)[nH]c2c1 (stereo unspecified) ?
[reply] 0 (no)

[ask] Could you kindly confirm the outcome this assay logged for O=c1[nH]c(NCCO)nnc1Cc1ccc(Cl)cc1 ?
[reply] 0 (no)

[ask] Write down the call the test reported for this compound. Item: Nc1cc(N)nc(SCc2cccc(F)c2)n1
[reply] 1 (yes)

[ask] Could you please tell me the result logged for Cc1ccc(OCC(=O)Nc2ccc(S(=O)(=O)Nc3ccccn3)cc2)cc1 in this assay?
[reply] 0 (no)

###

The following compounds are shown together with reported max response values.
# measurement description: Cycloheximide Counterscreen for Small Molecule Inhibitors of Shiga Toxin; note: read at 38.3 µM for the half of the compounds with a filed dose
# conditions used: cell reporter, cycloheximide protein synthesis inhibition counterscreen; stronger effect = higher value
Screen size: about 300,000 compounds; about 37,000 (12%) were called active. For the sample, actives were picked, then their nearest neighbours and some compounds at random.
Kindly answer with a numeric value in %, unit omitted.

Field: example entries. Status: answers known.
CC(C)[C@@H](C(=O)O)N(Cc1cccc(CN([C@H](C(=O)O)C(C)C)S(C)(=O)=O)c1)S(C)(=O)=O = -2.74
O=C(CCN1c2ccccc2Sc2ccccc21)Nc1ccccc1 = 9.13
CN1CCN(S(=O)(=O)c2cccc(C(=O)Nc3cccc(S(N)(=O)=O)c3)c2)CC1 = 5.45
O=C(COc1ccc(Cl)cc1)Nc1ccccc1CO = 19.6
O=C(c1ccc(Br)o1)N(c1ccccn1)C1CCCCC1 = 0.638

[ask] Answer with reported max response of COCCN(C(=O)C(C)C)c1nnc(-c2ccc(C(C)(C)C)cc2)s1
[reply] 13.2

[ask] Give the measured max response for COC(=O)c1sccc1NC(=O)c1ccc(Cl)cc1
[reply] -0.926

[ask] Indicate the recorded max response value for this compound: Cc1cccc(N2CCN(C(=O)c3cnn4c(C(F)F)cc(-c5ccccc5)nc34)CC2)c1C
[reply] -1.97

[ask] Supply reported max response belonging to this compound: CCN(CC)CCCNC(=O)c1ccc2c(=O)n(Cc3ccc4c(c3)OCO4)c(=S)[nH]c2c1
[reply] 5.61

[ask] Report max response for COc1ccc(S(=O)(=O)N2CCN(C)CC2)c(C)c1
[reply] -3.62

[ask] Write down max response measured for item CN1CCN(/N=C/c2ccc(C#N)cc2)CC1
[reply] 24.2

###

# measurement description: Cycloheximide Counterscreen for Small Molecule Inhibitors of Shiga Toxin; note: read at 38.3 µM for the half of the compounds with a filed dose
# conditions used: cell reporter, cycloheximide protein synthesis inhibition counterscreen
The whole screen tested about 300,000 compounds, of which about 37,000 (12%) were called active. Rule as the data show it: active = max response mostly above about 13% (no sharp cut-off); inactive = mostly below about 14%. This is one part of a sample in which actives are shown more often than they occur.
Bench note: report the call from yes (1) for active, no (0) for inactive

O=c1cc(C(F)(F)F)[nH]c(=O)n1C1CCCCC1 = no (0)

[ask] For Cc1nn(C)c(C)c1CN(C(=O)CCc1nnc(Cc2c[nH]c3ccccc23)o1)C(C)C , which call appears in the assay record?
[reply] no (0)

[ask] Tell me the recorded outcome of this test for Cc1ccc(-c2noc(C3CCCN(C(=O)c4cccc(Cl)c4)C3)n2)o1 (stereo not given) .
[reply] yes (1)

[ask] Check the results log: what was the call for CC1=C[C@H]2Cc3cc(C)cc(C)c3S(=O)(=O)[C@@H]2C=C1 ?
[reply] no (0)

[ask] Answer briefly: the call reported for NC(=O)c1ccc(NC(=O)COC(=O)C(Cc2ccccc2)NC(=O)c2ccccc2)cc1 (stereo not given) in this assay.
[reply] no (0)

###

# measurement description: Cycloheximide Counterscreen for Small Molecule Inhibitors of Shiga Toxin; note: read at 38.3 µM for the half of the compounds with a filed dose
# conditions used: cell reporter, cycloheximide protein synthesis inhibition counterscreen; stronger effect = higher value
The whole screen tested about 300,000 compounds, of which about 37,000 (12%) were called active. What follows is part of a selection rich in actives, with near analogues and random picks from the rest.
measured attribute: max response (%)
Give your result in % as a bare value.

The cases that follow already have their max response on record.
CCC(C)[C@H](NC(=O)N1c2ccccc2NC(=O)[C@@H]1C(C)C)C(=O)N[C@@H](Cc1ccccc1)C(=O)O (stereo not given in full) = 1.02
O=C(/C=C/Nc1ccc(S(=O)(=O)Nc2cnc3ccccc3n2)cc1)c1cccnc1 = 19.6

[ask] Give me measured max response, please, for this compound: Cc1c(N=Nc2ccc(N(C)C)cc2)c(=O)n(-c2ccccc2)n1C
[reply] 24.4

[ask] Respond only with max response recorded for Cc1noc(NS(=O)(=O)c2ccc(NC(=O)C34CCC(CC3)C4)cc2)c1C
[reply] -1.3

[ask] Supply measured max response of Cc1ccc(N=Nc2c(C)[nH]n(-c3ccccc3)c2=O)cc1 in your reply.
[reply] 7.15

###

Collected max response values appear next to each entry.
# measurement description: Cycloheximide Counterscreen for Small Molecule Inhibitors of Shiga Toxin; note: read at 38.3 µM for the half of the compounds with a filed dose
# conditions used: cell reporter, cycloheximide protein synthesis inhibition counterscreen; stronger effect = higher value
Among all 300,000 compounds or so, about 37,000 (12%) were called active. The entries come from a sample that favours actives as a whole.

As a guide, the following entries are already answered.
Cc1ccc(S(=O)(=O)NC(=O)Nc2nc(-c3ccc(F)c(F)c3)cs2)cc1 = 19.2% (active)
COc1cccc(CNC(=O)CCC2CCCN(C(=O)c3ccoc3C)C2)c1 (stereo not given) = 5.76% (inactive)
COc1cc(CC(=O)Nc2nc(-c3ccc(F)c(F)c3)cs2)cc(OC)c1OC = -5.65% (inactive)

[ask] Determine from records and report max response for Cc1cccc(N2CCN(C(=O)CN(C)S(=O)(=O)c3ccc4c(c3)CCC(=O)N4)CC2)c1C
[reply] -5.43% (inactive)

[ask] Note down max response recorded for Cc1ccccc1OCC(=O)Nc1nnc(S(=O)(=O)N2CCCC2)s1
[reply] 1.8% (inactive)
